Numbers sourced from patent US8895581B2.

- tgt: Recombinant human PDK1 enzyme (aa 52-556) (Homo sapiens (Human))
- protocol: PDK1 kinase assay
- test_context: 25 μM ATP solution with gamma-P33-ATP, PDKtide substrate, 90 min at RT
Rule for this label: 1 means IC50 is less than 20 nM; -1 means IC50 is at least 20 nM.

1. Cc1nc2cnc3ccc(C#CCNC(=O)c4cncn(Cc5ccc(F)c(F)c5)c4=O)cc3c2n1C | 1
2. Cc1nc2cnc3ccc(C#CCNC(=O)c4cccn(CC5CCCC5)c4=O)cc3c2n1C(C)C | -1
3. COc1nc2cnc3ccc(C#CCNC(=O)c4cncn(Cc5ccc(F)c(F)c5)c4=O)cc3c2n1C | 1
4. CN(C)CCCn1cnc2cnc3ccc(C#CCNC(=O)c4cncn(Cc5ccc(F)c(F)c5)c4=O)cc3c21 | 1
5. Cc1nc2cnc3ccc(C#CCNC(=O)c4cccn(CC5(O)CCCCC5)c4=O)cc3c2n1C(C)C | -1

Now let's try a different one.
Q. IC50 strictly < 20 nM for this molecule? `CCc1nc2cnc3ccc(C#CCNC(=O)c4cncn(Cc5ccc(F)c(F)c5)c4=O)cc3c2n1C`
A. 1

###

- tgt: Recombinant human PDK1 enzyme (aa 52-556) (Homo sapiens (Human))
- protocol: PDK1 kinase assay
- test_context: 25 μM ATP solution with gamma-P33-ATP, PDKtide substrate, 90 min at RT
quantity_kind: log10(IC50) (log10 of the value in nM)
Quick note: numbers are log10 of IC50, with nM as the unit.

1) O=C(NCC#Cc1ccc2ncc3ncn([C@H]4CCCNC4)c3c2c1)c1cncn(Cc2ccc(F)c(F)c2)c1=O | 0.95
2) Cc1nc2cnc3ccc(C#CCNC(=O)c4c(C)n(C)n(C(C)c5ccc(F)c(F)c5)c4=O)cc3c2n1C(C)C (stereo not shown) | 0.70
3) CN(C)CCn1cnc2cnc3ccc(C#CCNC(=O)c4cncn(Cc5ccc(F)c(F)c5)c4=O)cc3c21 | 1.70
4) CN1CC[C@H](n2cnc3cnc4ccc(C#CCNC(=O)c5cc(Cl)nn(Cc6ccc(F)c(F)c6)c5=O)cc4c32)C1 | 1.04
5) Cc1nc2cnc3ccc(C#CCNC(=O)c4cccn([C@H](C)c5ccc(F)c(F)c5)c4=O)cc3c2n1C(C)C | 1.74

Q. Could you tell me which log10(IC50) is on file for `CC(C)N1CCC(n2cnc3cnc4ccc(C#CCNC(=O)c5cccn([C@@H](C)c6ccc(F)c(F)c6)c5=O)cc4c32)CC1` ?
A. 0.30

Q. Could you tell me which log10(IC50) is on file for `Cc1nc2cnc3ccc(C#CCNC(=O)c4cccn(C[C@H]5CCCC[C@H]5O)c4=O)cc3c2n1C(C)C` ?
A. 2.34

###

- tgt: Recombinant human PDK1 enzyme (aa 52-556) (Homo sapiens (Human), UniProt O15530)
- Sequence (O15530 52-556): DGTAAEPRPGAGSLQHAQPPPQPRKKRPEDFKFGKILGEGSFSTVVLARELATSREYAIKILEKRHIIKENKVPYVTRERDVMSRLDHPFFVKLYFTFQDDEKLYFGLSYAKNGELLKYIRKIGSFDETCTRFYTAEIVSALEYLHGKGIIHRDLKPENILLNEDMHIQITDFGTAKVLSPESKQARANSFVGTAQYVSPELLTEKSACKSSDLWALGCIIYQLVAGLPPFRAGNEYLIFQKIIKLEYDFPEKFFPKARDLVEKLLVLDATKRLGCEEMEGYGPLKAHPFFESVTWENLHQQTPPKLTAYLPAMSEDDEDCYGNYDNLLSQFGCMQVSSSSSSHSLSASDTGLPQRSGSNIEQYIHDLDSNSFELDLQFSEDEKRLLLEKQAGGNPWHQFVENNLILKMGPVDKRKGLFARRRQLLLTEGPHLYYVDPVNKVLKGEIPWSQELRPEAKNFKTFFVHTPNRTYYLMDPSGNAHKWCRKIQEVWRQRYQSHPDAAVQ
- protocol: PDK1 kinase assay
- test_context: 25 μM ATP solution with gamma-P33-ATP, PDKtide substrate, 90 min at RT
quantity_kind: log10 of IC50 (log10 of the value in nM)
Quick note: numbers are log10 of IC50, with nM as the unit.

1) Cc1nc2cnc3ccc(C#CCNC(=O)c4cccn([C@H](CO)c5ccc(F)c(F)c5)c4=O)cc3c2n1C(C)C | 0.30
2) Cc1nc2cnc3ccc(C#CCNC(=O)c4cccn(CC5CCCCC5)c4=O)cc3c2n1C(C)C | 1.15
3) CN1CCC[C@@H](n2cnc3cnc4ccc(C#CCNC(=O)c5cc(Cl)nn(Cc6ccc(F)c(F)c6)c5=O)cc4c32)C1 | 2.90
4) CCc1c(C(=O)NCC#Cc2ccc3ncc4nc(C)n(C(C)C)c4c3c2)c(=O)n(Cc2ccc(F)c(F)c2)n1C | 0.70
5) Cc1nc2cnc3ccc(C#CCNC(=O)c4c(C)n(C)n(Cc5ccc(F)c(F)c5)c4=O)cc3c2n1C1CCOCC1 | 0.70

Q. Could you tell me which log10 of IC50 is on file for `O=C(NCC#Cc1ccc2ncc3ncn(C4CCNCC4)c3c2c1)c1cccn([C@H](CO)c2ccccc2)c1=O` ?
A. 3.30

Q. Could you tell me which log10 of IC50 is on file for Cc1nc2cnc3ccc(C#CCNC(=O)c4cncn(Cc5ccc(F)c(F)c5)c4=O)cc3c2n1C1CCCOC1 (centres unmarked) ?
A. 0.30
